Give TGI for every item shown.
Tested on: T-47D breast
assay-summary: NCI tumour cell line growth inhibition, 48 h

**Query** Give TGI; test system T-47D breast; compound O=C1C2CC3C(CC2C(=O)[N]1[Sn]([c]1ccccc1)([c]1ccccc1)[c]1ccccc1)C1(Cl)C(Cl)=C(Cl)C3(Cl)C1(Cl)Cl (stereo unspecified)
**Result** 0.22 µM

**Query** Give TGI; test system T-47D breast; compound Cc1cc(Cl)ccc1Nc1sc(C(=O)c2cc3cc(Cl)ccc3o2)c(N)c1C#N
**Result** > 100 µM

**Query** Give TGI; test system T-47D breast; compound O=c1ncc(-c2ccc(C(F)(F)F)cc2)c(NC2CCCCCC2)[nH]1
**Result** 57.8 µM

**Query** Give TGI; test system T-47D breast; compound CON(C)C(=O)C(Cc1ccccc1)NC(=O)OC(C)(C)C (stereo unspecified)
**Result** > 100 µM

**Query** Give TGI; test system T-47D breast; compound Cc1[nH]c2c(C)ccc(C)c2c1CC(=O)O
**Result** > 100 µM

**Query** Give TGI; test system T-47D breast; compound CNC(=O)Nc1cc2c3c(c1)CCCN3CCC2
**Result** > 10 µM

---

Tested on: HL-60(TB) leukemia
assay-summary: NCI tumour cell line growth inhibition, 48 h
experimental-readout: TGI

**Query** Look up TGI of O=C(NNC(=S)Nc1ccccc1)C12CC3CC(CC(C3)C1)C2 and report it.
**Result** 37.7 µM

**Query** Look up TGI of N=c1c2c(ncn1N)Oc1c(c(-c3ccccc3)nn1-c1ccccc1)C2c1ccc(Cl)cc1 (stereo unspecified) and report it.
**Result** > 100 µM

**Query** Look up TGI of C=CCNC1=C2C[C@@H](C)C[C@@H](OC)[C@H](OC(=O)CN(C)C)[C@H](C)/C=C(\C)[C@@H](OC(N)=O)[C@H](OC)/C=C\C=C(/C)C(=O)NC(=CC1=O)C2=O and report it.
**Result** 13.7 µM

**Query** Look up TGI of C[C@]12CC[C@@H]3c4ccc(OC(=O)c5ccccc5)cc4CC[C@H]3[C@@H]1CCC2OC(=O)c1cccc2c(=O)c3ccccc3[nH]c12 (stereo partly specified) and report it.
**Result** > 100 µM

**Query** Look up TGI of COc1ccc(-c2oc3c(CC(=O)O)cccc3c(=O)c2OC)cc1 and report it.
**Result** > 100 µM

**Query** Look up TGI of COC(=O)c1cc(Br)c(C(=O)C(Cl)(Cl)Cl)[nH]1 and report it.
**Result** > 100 µM

**Query** Look up TGI of CCc1cc(-c2nsc(=O)o2)c(S(=O)(=O)CC)s1 and report it.
**Result** 12 µM

**Query** Look up TGI of CCCCCCCCCOC(=S)NC and report it.
**Result** 34.1 µM

**Query** Look up TGI of O=C1O/C(=C\c2ccc(O)c(Br)c2)C(c2ccc(O)cc2)=C1Cl and report it.
**Result** > 100 µM

**Query** Look up TGI of COc1cccc2c1C(=O)C(=O)c1c-2oc(=O)c2cc(C)cc(OC)c12 and report it.
**Result** 49.9 µM

**Query** Look up TGI of CS(=O)(=O)CCNCc1ccc(-c2ccc3ncnc(Nc4ccc(OCc5ccccc5)c(C(F)(F)F)c4)c3c2)o1 and report it.
**Result** 13.3 µM

**Query** Look up TGI of CC(=O)O[C@H]1CC[C@H]2[C@@H]3CCc4cc(O)c(I)cc4[C@H]3CC[C@]12C and report it.
**Result** 80.9 µM

**Query** Look up TGI of O=C(Sc1c(-c2ccccc2)c(=O)n(-c2ccccc2)c(=S)n1-c1ccccc1)c1ccc(Cl)cc1 and report it.
**Result** > 100 µM

**Query** Look up TGI of CN1C(=O)n2c(nc3ccccc32)C(N=[N+]=[N-])(N=[N+]=[N-])C1=O (stereo unspecified) and report it.
**Result** > 100 µM

**Query** Look up TGI of N#CN=Nc1cc(Cl)c(N=NC#N)cc1Cl and report it.
**Result** > 100 µM

**Query** Look up TGI of COc1cc2c(c(OC)c1OC)-c1ccc(OC)c(=O)cc1[C@@H](NC(=O)CCl)CC2 and report it.
**Result** < 0.0136 µM

**Query** Look up TGI of COC(=O)c1cc(NC2OCC(OC(C)=O)C(OC(C)=O)C2OC(C)=O)nc(SC)c1C(=O)OC (stereo unspecified) and report it.
**Result** > 100 µM

**Query** Look up TGI of COc1cc(-c2c[nH]c3ccccc23)nc(-c2c[nH]c3ccccc23)n1 and report it.
**Result** 12.9 µM

**Query** Look up TGI of CN(C)CCOc1cc2c(c3ccccc13)-c1ccccc1C2=O and report it.
**Result** 2.7 µM

**Query** Look up TGI of COc1ccc(-c2coc3ncnc(N)c23)cc1 and report it.
**Result** > 25 µM

**Query** Look up TGI of COc1ccc(C(=O)/C=C/c2cc3ccccc3[nH]c2=O)cc1 and report it.
**Result** > 100 µM

**Query** Look up TGI of COc1ccc(NC(=O)C(=O)C(CC2C(=O)NC(=S)NC2=O)C(=O)c2ccc3ccccc3c2)c([N+](=O)[O-])c1 (stereo unspecified) and report it.
**Result** > 100 µM

**Query** Look up TGI of Cc1nc(NC(=S)NC(=O)c2ccc(Cl)c(Cl)c2)sc1C(=O)/C=C/c1ccccc1[N+](=O)[O-] and report it.
**Result** 45.8 µM

**Query** Look up TGI of COc1ccc2cc(C(=O)c3ccccc3C(=O)O)ccc2c1 and report it.
**Result** > 100 µM

**Query** Look up TGI of COC(=O)/C=C\c1ccc2c(c1)CC1(C2)Cc2ccc(/C=C/C(=O)OC)cc2C1 (stereo unspecified) and report it.
**Result** > 31.6 µM

**Query** Look up TGI of O=C(O)c1ccc(Nc2ccnc3cc(Cl)ccc23)cc1O and report it.
**Result** > 100 µM

---

System: ACHN renal
assay-summary: NCI tumour cell line growth inhibition, 48 h
experimental-readout: TGI

**Query** Look up TGI of CCCC(OCC)(OCC)OCC and report it.
**Result** > 100 µM

**Query** Look up TGI of COc1cc2[nH]c(C(=O)c3cc(OC)c(OC)c(OC)c3)c(N)c2cc1C#CCO and report it.
**Result** > 100 µM

**Query** Look up TGI of Cc1ccc(-c2csc(N(C(=O)N3CCN(c4cc5c(cc4F)c(=O)c(C(=O)O)cn5C4CC4)CC3)c3ccccc3)n2)cc1 and report it.
**Result** > 100 µM

**Query** Look up TGI of CCOC(=O)C(NNS(=O)(=O)c1ccc(C)cc1)S(=O)(=O)C(F)(F)C(F)(F)C(F)(F)C(F)(F)F (centres undefined) and report it.
**Result** > 100 µM

**Query** Look up TGI of O=C1C2CC3C(CC2C(=O)[N]1[Sn]([c]1ccccc1)([c]1ccccc1)[c]1ccccc1)C1(Cl)C(Cl)=C(Cl)C3(Cl)C1(Cl)Cl (centres undefined) and report it.
**Result** 0.243 µM

**Query** Look up TGI of COC(=O)c1cc(C)ccc1/C=C1\Cc2cc(C)c(C)cc2C1=O and report it.
**Result** > 100 µM

**Query** Look up TGI of CCCCOC(=O)CN1C(=O)c2ccccc2C1=O and report it.
**Result** > 100 µM

**Query** Look up TGI of COc1ccccc1C1C2=C(COC2=O)OC(C)(C)Oc2cc3c(cc21)OCO3 (centres undefined) and report it.
**Result** > 94.1 µM

**Query** Look up TGI of CCCCCCCC[N+](C)(C)Cc1ccc(C[N+](C)(C)CCCCCCCC)cc1 and report it.
**Result** > 100 µM

**Query** Look up TGI of Cc1cc(C)c(C(=O)O)c(N)c1O and report it.
**Result** > 100 µM

**Query** Look up TGI of CCN1C(C)=NC2C(=O)c3ccccc3C(=O)C21 (centres undefined) and report it.
**Result** > 100 µM

**Query** Look up TGI of c1ccc(COCC23CCN(Cc4ccccc4)C(CC(OCc4ccccc4)C2)S3)cc1 (centres undefined) and report it.
**Result** > 100 µM

**Query** Look up TGI of Cc1nc(NC(=S)NC(=O)c2ccc(Cl)c(Cl)c2)sc1C(=O)/C=C/c1ccccc1[N+](=O)[O-] and report it.
**Result** 67.4 µM

**Query** Look up TGI of COc1ccc(C(=O)/C=C/c2cc3ccccc3[nH]c2=O)cc1 and report it.
**Result** > 55.1 µM

**Query** Look up TGI of Nc1nc(N)c2nc(CNc3ccc(C(=O)CC(CCC(=O)O)C(=O)O)cc3)cnc2n1 (centres undefined) and report it.
**Result** > 100 µM

**Query** Look up TGI of CC(C)[Si](OC12CCC(CC1O)CC2C(=O)O)(C(C)C)C(C)C (centres undefined) and report it.
**Result** 29.1 µM

**Query** Look up TGI of Cc1nnc(Nc2ccc(Cl)cc2)o1 and report it.
**Result** > 10 µM

**Query** Look up TGI of O=c1c2cccnc2[nH]c2ccc3scnc3c12 and report it.
**Result** > 10 µM

**Query** Look up TGI of COc1ccc(-c2oc3c(CC(=O)O)cccc3c(=O)c2OC)cc1 and report it.
**Result** > 100 µM

**Query** Look up TGI of O=S(=O)(O)c1cc(S(=O)(=O)O)c2c(N=Nc3cccc4ccccc34)c(O)ccc2c1 and report it.
**Result** > 100 µM

**Query** Look up TGI of CS(=O)(=O)CCNCc1ccc(-c2ccc3ncnc(Nc4ccc(OCc5ccccc5)c(C(F)(F)F)c4)c3c2)o1 and report it.
**Result** > 25 µM

**Query** Look up TGI of CC(=O)O[C@H]1CC[C@H]2[C@@H]3CCc4cc(O)c(I)cc4[C@H]3CC[C@]12C and report it.
**Result** 28.1 µM

**Query** Look up TGI of O=C(O)C(Cc1ccc(O)cn1)NC(=O)C(F)(F)F (centres undefined) and report it.
**Result** > 100 µM

**Query** Look up TGI of Cc1nc(Nc2nnc(-c3cc([N+](=O)[O-])cc([N+](=O)[O-])c3C)o2)sc1C(=O)CC(=O)Cc1nc2ccc(Cl)cc2[nH]c1=O and report it.
**Result** > 100 µM

**Query** Look up TGI of CC1CC(N)=Nc2ccccc2N1Cc1ccccc1 (centres undefined) and report it.
**Result** 28.5 µM

**Query** Look up TGI of Cc1c(O)c(OC2OC(CO)C(O)C(O)C2O)cc2c1CC[C@@H]1C2(C)C(=O)C[C@]2(C)[C@@H]([C@@](C)(O)C(O)/C=C/C(C)(C)O)[C@H](O)C[C@@]12C (some centres undefined) and report it.
**Result** > 100 µM

**Query** Look up TGI of C/C(CC(=O)CCCC(=O)Nc1ccc(Cl)cc1Cl)=N/NC(=O)CC#N and report it.
**Result** > 100 µM

**Query** Look up TGI of CCC[CH2][Sn]1([CH2]CCC)[O]C(c2ccccn2)S(=O)(=O)[O]1 (centres undefined) and report it.
**Result** 20 µM

**Query** Look up TGI of CCOC(=O)C1Cc2c(ccc(OC)c2OC)C(=O)C1N (centres undefined) and report it.
**Result** > 100 µM

**Query** Look up TGI of O=C1C=C(Nc2ccccc2)c2ncccc2C1=O and report it.
**Result** 1.22 µM

**Query** Look up TGI of Cc1cc(NC(=O)c2ccc(NS(=O)(=O)CCO)cc2N2CCC3(CC2)CC3)nc(N2CCC(F)(F)CC2)n1 and report it.
**Result** 26.4 µM

**Query** Look up TGI of CC1=CC(C)C(C)N(CCNC(=O)Nc2ccccc2)c2ccccc21 (centres undefined) and report it.
**Result** 63.7 µM

**Query** Look up TGI of Cc1cc(Cl)ccc1Nc1sc(C(=O)c2cc3cc(Cl)ccc3o2)c(N)c1C#N and report it.
**Result** 98.1 µM

**Query** Look up TGI of O=[N+]([O-])C(/C(Cl)=C(/Cl)N1CCCCC1)=C1\NCCO1 and report it.
**Result** > 100 µM

**Query** Look up TGI of C[C@H]1CCC/C=C/[C@@H]2C[C@H](O)C[C@H]2[C@H](O)[C@H](S(=O)c2ccc(O)cc2)CC(=O)O1 (some centres undefined) and report it.
**Result** 0.41 µM

**Query** Look up TGI of CCc1ccccc1NC(=O)/C(CC(=O)c1c(C)n([O-])c2ccccc2[n+]1=O)=N\NS(=O)(=O)c1ccc(C)cc1 and report it.
**Result** > 100 µM

**Query** Look up TGI of CCc1ccc(C2=C/C(=C/c3ccc(Cl)cc3)C(=O)N2CCc2ccc(S(N)(=O)=O)cc2)cc1 and report it.
**Result** 4.23 µM

**Query** Look up TGI of NCCCNc1ccc2c(c1)[n+]([O-])c1ccccc1[n+]2[O-] and report it.
**Result** 77.7 µM

**Query** Look up TGI of O=C1C(=O)c2cc([N+](=O)[O-])ccc2-c2ccccc21 and report it.
**Result** 2.96 µM
